Recorded binding affinity for the following binders
- study-target: claudin 18.2 (CLDN 18.2), recombinant protein (human)
- Sequence (chain, as listed by the source limits assumed): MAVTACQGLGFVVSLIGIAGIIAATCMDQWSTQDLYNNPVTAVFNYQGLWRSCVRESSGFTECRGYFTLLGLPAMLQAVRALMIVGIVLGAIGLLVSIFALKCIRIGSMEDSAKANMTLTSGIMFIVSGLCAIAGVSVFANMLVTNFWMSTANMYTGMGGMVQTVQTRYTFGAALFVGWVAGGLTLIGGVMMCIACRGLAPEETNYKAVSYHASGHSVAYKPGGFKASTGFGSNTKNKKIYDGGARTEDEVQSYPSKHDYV
- method-description: competitive phage ELISA, phage-displayed Fab, coated and soluble CLDN 18.2
- Set-up: unit not given here
Keep it simple and answer with nothing but the number.

9O47E (9O47 with LC55E), phage-displayed Fab (Fab, V domains shown, also called 9O47 LC55E (L2)) VH: EVQLVESGGGLVQPGGSLRLSCAVSGYTFSMNWVRQAPGKGLEWVAWINMYTGEPIYADDFKGRFTISRDDSKNTLYLQMNSLRAEDTAVYYCARLYNGNSLDYWGQGTLVTVSS VL: DIQMTQSPSSLSASVGDRVTITCKSSQSLLNWGNQKSYLTWYQQKPGKAPKLLIYWASTLESGVPSRFSGSGSGTDYTLTISSLQPEDFATYYCQNAYSFPFTFGQGTKVEIK: 0.141

From here, focus on the item given below.
The binder listed as 9O41, phage-displayed Fab (Fab, V domains shown) VH: EVQLVESGGGLVQPGGSLRLSCAVSGYTFSMNWVRQAPGKGLEWVAWINMYTGERTYADDFKGRFTISRDDSKNTLYLQMNSLRAEDTAVYYCARLYNGNSLDYWGQGTLVTVSS VL: DIQMTQSPSSLSASVGDRVTITCKSSQSLLNSGNIKSYLTWYQQKPGKAPKLLIYWASTLRSGVPSRFSGSGSGTDYTLTISSLQPEDFATYYCQNAYSFPFTFGQGTKVEIK has a reported binding affinity of 0.167
